- Assay Summary: Capability of compound to inhibit the binding of [3H]LTB4 to guinea pig spleen Leukotriene B4 receptors at the concentration of 10e-5 M
Quantity Name: IC50

Ask: Name the recorded IC50 of the item "O=C(O)CCCCCCc1ccsc1CCCc1ccccc1" in your answer.
Result: 1 µM

----------
- Assay Summary: Capability to inhibit the binding of [3H]LTB4 to guinea pig spleen Leukotriene B4 receptor at the concentration of 10e-5 M
Quantity Name: pIC50
Convention used: pIC50 is expressed as -log10 of the molar concentration.

1. Cc1cc(CCCCCC(C)C(=O)O)c(CCCc2ccccc2)s1 (centres undefined) | 6.52
2. O=C(O)CCCCCCc1csc(CCCc2ccc(Cl)cc2)c1 | 6.00
3. O=C(O)CCCCCCc1sc(-c2ccccc2)cc1CCCc1ccccc1 | 6.00

Ask: Name the recorded pIC50 of the item "O=C(O)CCCCc1sccc1CCCc1ccccc1" in your answer.
Result: 5.46

----------
Reported log10(IC50) by item:
- Assay Summary: Capability to inhibit the binding of [3H]LTB4 to guinea pig spleen Leukotriene B4 receptor at the concentration of 10e-5 M
Units before log transform: µM; reported quantity: IC50; transform: log10.

1) O=C(O)CCCCCCc1ccsc1CCCc1ccc(Cl)cc1 | 0.00
2) Cc1cc(CCCc2ccccc2)c(SCCCCCC(=O)O)s1 | 0.48
3) CC(CCCCCc1sccc1CCCc1ccccc1)C(=O)O (configuration not stated) | -0.96
4) CC(C)(CCCCCc1cc(-c2ccccc2)sc1CCCc1ccccc1)C(=O)O | 0.08
5) CC(C)(CCCCCc1sc(-c2ccccc2)cc1CCCc1ccccc1)C(=O)O | -0.10
6) Cc1cc(CCCc2ccccc2)c(CCCCCC(C)C(=O)O)s1 (configuration not stated) | -0.52

Ask: Name the recorded log10(IC50) of the item "Cc1cc(CCCCCCC(=O)O)c(CCCc2ccccc2)s1" in your answer.
Result: -0.15

Ask: Name the recorded log10(IC50) of the item O=C(O)CCCCCC(O)c1sccc1CCCc1ccccc1 (configuration not stated) in your answer.
Result: 0.78

Ask: Name the recorded log10(IC50) of the item "O=C(O)CCCCCCc1csc(Cc2ccccc2)c1" in your answer.
Result: 1.00

Ask: Name the recorded log10(IC50) of the item "O=C(O)CCCCCCc1csc(CCCc2ccc(O)cc2)c1" in your answer.
Result: 0.70

Ask: Name the recorded log10(IC50) of the item "O=C(O)CCCCCCc1sccc1CCCc1ccccc1" in your answer.
Result: 0.00

Ask: Name the recorded log10(IC50) of the item "O=C(O)CCCCCCc1csc(CCc2ccccc2)c1" in your answer.
Result: 1.00
